Exercise: for every item that follows, state its recorded melting point.

Lookup: Need melting point of O=C(O)c1cn(-c2ccc(SC(F)(F)F)cc2)cn1 , thanks.
Found: 247 to 248 °C

Lookup: Now consider COc1cc(COc2nn(-c3ccccc3)cc2/C=C/c2csc(C(C)C)n2)ccc1OCc1nc(-c2ccc(CC(=O)O)cc2)oc1C and answer again.
Found: 107 to 109 °C

Lookup: Now consider Oc1c(CCl)cc(Cl)cc1CCl and answer again.
Found: 88 °C

Lookup: Now consider CN(C)C1CCCN(C(=O)c2ccc(-c3[nH]nc4c3C(=O)c3c(NC(=O)NN5CCOCC5)cccc3-4)s2)C1 (stereo not given) and answer again.
Found: > 300 °C

Lookup: Now consider Nc1c(Cl)c(F)nc(F)c1Cl and answer again.
Found: 110 °C

Lookup: Now consider COc1ccc(CC2CNC(=O)N2)cc1O (stereo not given) and answer again.
Found: 192 to 202 °C

Lookup: Now consider CC(C)C[C@@H](C(=O)N[C@@H](C(C)C)[C@H](O)c1c(-c2ccccc2)c1=O)N(C)C(=O)OCc1ccccc1 and answer again.
Found: 112 °C

Lookup: Now consider COc1cc(C(C)=O)ccc1OCCCCCN1CCC(C(O)(c2ccc(F)cc2)c2ccc(F)cc2)CC1 and answer again.
Found: 118 °C

Lookup: Now consider COC(=O)c1ccc(-c2ccc(-c3ccc4c(c3)C(C)(C)CCC4(C)C)[nH]2)cc1 and answer again.
Found: 176 to 179 °C

Lookup: Now consider CS(=O)(=O)NCCC(c1cc(F)ccc1F)S(=O)(=O)c1ccc(Cl)cc1 (stereo not given) and answer again.
Found: 131 to 134 °C

Lookup: Now consider C=CCON=C(CCC)C1=C(O)CC(c2ccc(C(=O)SCC)cc2)CC1=O (stereo not given) and answer again.
Found: 72 to 75 °C

Lookup: Now consider COC(=O)C(=C/c1c(OC)cc(OC)cc1OC)/C(=C\c1ccccc1)C(N)=O and answer again.
Found: 169 to 171 °C

Lookup: Now consider Cc1nc2ccc(NCCCN3CCC(OC(c4ccccc4)c4ccccc4)CC3)nn2n1 and answer again.
Found: 119 to 120 °C

Lookup: Now consider CCCCC(CC)COc1cc(-c2ccccn2)nc(-c2ccccn2)c1 (stereo not given) and answer again.
Found: 58.5 °C

Lookup: Now consider CN(C)c1nc(Br)cnc1NS(=O)(=O)c1cccc2c(N(C)C)cccc12 and answer again.
Found: 180 to 182 °C

Lookup: Now consider Clc1nc(Cl)c2ncn(C3CCCCC3)c2n1 and answer again.
Found: 116 to 121 °C

Lookup: Now consider CCOC(=O)c1ccc2nc(-c3ccc(C)cc3)c(CN(C)C(=O)CC(C)C)n2c1 and answer again.
Found: 158 to 160 °C

Lookup: Now consider Cc1nn(C)c2cc(-c3ccc(F)cc3)nc(-c3ccc4c(c3)OCO4)c12 and answer again.
Found: 166 to 168 °C

Lookup: Now consider N#CNC=Nc1ccc(-c2c[nH]cn2)cc1 and answer again.
Found: 234 to 235 °C

Lookup: Now consider O=C1NCc2c1cc1ccc3c(c1c2-c1ccc(F)cc1)OCO3 and answer again.
Found: 294 to 297 °C

====

Exercise: for every item that follows, state its recorded melting point.

Lookup: Need melting point of COC1CCN(c2cc(NC(=O)OC(C)(C)C)c([N+](=O)[O-])cc2C#Cc2ccccc2)CC1 , thanks.
Found: 147 to 150 °C

Lookup: Now consider COC(=O)C(CCCc1cc(C(C)(C)C)c(O)c(C(C)(C)C)c1)S(=O)(=O)C(CCCc1cc(C(C)(C)C)c(O)c(C(C)(C)C)c1)C(=O)OC (centres undefined) and answer again.
Found: 68 to 69 °C

Lookup: Now consider CC12CC(=O)C3C(CCC4CC(=O)CCC43C)C1CCC2C(=O)CBr (centres undefined) and answer again.
Found: 170 °C

Lookup: Now consider CNc1nc(C)c(-c2cn3ccc(C)cc3n2)s1 and answer again.
Found: 220 to 221 °C

Lookup: Now consider O=C(Nc1ccc(F)cc1)Nc1nc(Nc2ccc(Cl)cc2)sc1C(=O)c1ccc(Cl)cc1Cl and answer again.
Found: > 280 °C

Lookup: Now consider O=[N+]([O-])c1nn(-c2c(Cl)cc(C(F)(F)F)cc2Cl)cc1S(=O)C(F)(F)F (centres undefined) and answer again.
Found: 124 to 130 °C

Lookup: Now consider OC(CS)(Cn1cncn1)c1ccc(Cl)cc1Cl (centres undefined) and answer again.
Found: 139 to 142 °C

Lookup: Now consider O=C(NCc1ccccc1)NOCC(O)CN1CCCCC1 (centres undefined) and answer again.
Found: 100 to 101 °C

Lookup: Now consider CCCCCCOc1cccc2ncccc12 and answer again.
Found: 46 to 49 °C

====

Exercise: for every item that follows, state its recorded melting point.

Lookup: Need melting point of COC(=O)C1=C(CN2CCN(C)CC2)Nc2ccnc(OC(C)C)c2C1c1ccccc1 (stereo not given) , thanks.
Found: 149 to 151 °C

Lookup: Now consider CCOCc1nc2c(N)nc3ccc(OCc4ccccc4)cc3c2n1CC(C)(C)O and answer again.
Found: 181 to 182 °C

Lookup: Now consider O=C(NC(=O)c1c(F)cccc1F)Nc1cc(Cl)c(OC(F)(F)C(F)Cl)cc1Cl (stereo not given) and answer again.
Found: 177 to 179 °C

Lookup: Now consider Clc1ncccc1-c1ncoc1-c1cccnc1Cl and answer again.
Found: 157 to 158 °C

Lookup: Now consider Nc1ccc(C(=O)C(O)c2ccccc2)cc1 (stereo not given) and answer again.
Found: 199 to 203 °C

Lookup: Now consider COC(=O)c1ccccc1C1CC(c2ccccc2)=NO1 (stereo not given) and answer again.
Found: 93.5 to 95 °C

Lookup: Now consider CNC1(C)CN(c2cc3c(cc2F)c(=O)c(C(=O)O)cn3C(C)(C)C)C1 and answer again.
Found: 251 to 253 °C

Lookup: Now consider CCOC(=O)c1ccnc(-c2nc(=O)c3ccccc3s2)c1 and answer again.
Found: 236 to 237 °C

Lookup: Now consider O=c1oc2cc(O)c(O)cc2c2c1CN(CCN1CCOCC1)CC2 and answer again.
Found: 299 to 302 °C

Lookup: Now consider COc1cc2sc(/C=C(\Oc3ccc(C(C)C)cc3)C(=O)O)cc2c(Cl)c1OC and answer again.
Found: 255 to 256 °C

Lookup: Now consider Cc1cccc(C(=O)Nc2ccc3c(c2)CCC(NCc2ccccn2)CC3)c1-c1ccc(C(F)(F)F)cc1 (stereo not given) and answer again.
Found: 104 to 106 °C

Lookup: Now consider Cc1[nH]c(=O)[nH]c1C(=O)CC(C)C and answer again.
Found: 232 to 233 °C

Lookup: Now consider CC(C)(C)OC(=O)NCC1CCN(CC2(C(=O)O)CCCC2)CC1 and answer again.
Found: 150 °C

Lookup: Now consider O=C(O)CCC(=NOCc1ccc(OCc2ccc3ccccc3n2)cc1)c1ccccc1 and answer again.
Found: 133 to 134 °C

Lookup: Now consider CCNC(=O)c1ccc(N2CCNCC2)c(Cl)c1 and answer again.
Found: 117 to 119 °C

Lookup: Now consider CCc1ncnc(N[C@H]2CC[C@@H](C=O)CC2)c1Cl and answer again.
Found: 96 to 97 °C

Lookup: Now consider CS(=O)(=O)c1cccc(NC(=O)c2cnn3c(C(F)F)cc(-c4ccc(C(F)(F)F)c(OCC(F)(F)F)c4)nc23)c1 and answer again.
Found: 207 °C

Lookup: Now consider Cc1ccc(N2N=C(C(F)(F)F)CC2c2ccc(S(C)(=O)=O)cc2)cc1 (stereo not given) and answer again.
Found: 140 to 143 °C

Lookup: Now consider COC(=O)C1=C(C)NC(=O)N(C)C1c1cccc([N+](=O)[O-])c1 (stereo not given) and answer again.
Found: 217 to 219 °C

Lookup: Now consider Cc1nc2cc(NC(=O)Nc3ccc(C(F)(F)F)cc3)ccc2o1 and answer again.
Found: 240 to 243 °C

Lookup: Now consider NC(CO)(CO)CCc1ccc(C(=O)CCCCCCc2ccccc2)cc1 and answer again.
Found: 121 to 122 °C

Lookup: Now consider O=C(NCC(=O)c1c(O)cc(O)cc1OCc1ccccc1)OCc1ccccc1 and answer again.
Found: 129 to 131 °C

Lookup: Now consider CC(C)(O)C(CS(=O)(=O)c1ccccc1)C(F)(F)F (stereo not given) and answer again.
Found: 59 to 60 °C

Lookup: Now consider O=C1Nc2ccccc2C1(O)c1ccc2c(c1)OCO2 (stereo not given) and answer again.
Found: 177 to 180 °C

Lookup: Now consider O=c1cc(CCN2CCC(c3c[nH]c4ccccc34)CC2)c2cc([N+](=O)[O-])ccc2[nH]1 and answer again.
Found: 251 to 253 °C

Lookup: Now consider COC(=O)CN(C)c1cccc(-c2ccc(Cl)cc2)n1 and answer again.
Found: 54 °C

Lookup: Now consider CCCc1nn(-c2ccc(C(F)(F)F)cn2)cc1CCC(=O)OCC and answer again.
Found: 73 to 74 °C

Lookup: Now consider CCCC[C@H](NC(=O)[C@H](CC(C)C)NC(=O)OCc1ccccc1)C(=O)CCCc1ccco1 and answer again.
Found: 62 to 64 °C

Lookup: Now consider COC(=O)N=C(N(C)C)N(C)C(=O)NC1CCCCC1 and answer again.
Found: 60 °C

Lookup: Now consider Cc1csc(C(=O)c2[nH]c3cc(Cl)ccc3c2CC(=O)O)n1 and answer again.
Found: 239 to 240 °C

Lookup: Now consider CC(C)c1ccc(-c2ccc(C3N=C(c4ccccc4Cl)CC3C#N)cc2)cc1 (stereo not given) and answer again.
Found: 127 to 128 °C

Lookup: Now consider CC(C)Cn1c(CN2CCOCC2)nc2c(N)nc3c(c21)CCCC3 and answer again.
Found: 165 to 172 °C

Lookup: Now consider O=C(O)CCNC(=O)CCCCC1CCSS1 (stereo not given) and answer again.
Found: 74 to 76 °C

Lookup: Now consider C1=CC(Nc2ccccc2)C(=Nc2ccccc2)N1 (stereo not given) and answer again.
Found: 137 to 139 °C

Lookup: Now consider Cc1nc(C2OC(CO)C(O)C2O)c(N)nc1OCc1ccccc1 (stereo not given) and answer again.
Found: 152 to 153 °C

Lookup: Now consider O=C(O)Cc1cccc(OCc2ccc3oc([N+](=O)[O-])c(-c4ccccc4)c3c2)c1 and answer again.
Found: 144 to 145 °C

Lookup: Now consider CN(C)C=C(C#N)C(=O)Nc1ccccc1Cl and answer again.
Found: 122 to 123 °C

Lookup: Now consider NCc1nc(-c2ncn3c2[C@@H]2CCN2C(=O)c2cc(F)ccc2-3)no1 and answer again.
Found: 195 to 198 °C

Lookup: Now consider Cc1cccc(CNC(=O)c2ccc3n2Cc2ccccc2N(C(=O)COc2ccc(Cl)cc2)C3)c1 and answer again.
Found: 130 to 131 °C

Lookup: Now consider CC(C)CC(CP(=O)(O)CNCCc1ccccc1)C(=O)N(c1ccc(-c2ccccc2)cc1)[C@@H](C)C(=O)O (stereo not given in full) and answer again.
Found: 229 to 230 °C

Hello, the source for this data is a melting point compilation (Tetko et al.; mined from patent text by program, amines drawn as free bases though some values may be those of a salt), in case you need it.
